Test system: HUVEC/MSC spheroids viability
Test: Human HUVEC/MSC cell line growth inhibition [KRAS2];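 further: percent of DMSO vehicle control luminescence so 100% = untreated viability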
Conditions: second compound 1 µM; first compound 0.316 µM; active compounds read low
observable: viability, T/C (%)
Express your answer in %, writing the number without its unit.

Some entries whose results are on file:
1) O=C(c1cc(Cc2n[nH]c(=O)c3ccccc23)ccc1F)N1CCN(C(=O)C2CC2)CC1 + C=CC(=O)N1CCN(c2nc(=O)n(-c3c(C)ccnc3C(C)C)c3nc(-c4c(O)cccc4F)c(F)cc23)C(C)C1 = 124
2) COc1cc(Nc2ncc3c(n2)-c2ccc(Cl)cc2C(c2c(F)cccc2OC)=NC3)ccc1C(=O)O + COc1cc2nc(C)nc(NC(C)c3cc(N)cc(C(F)(F)F)c3)c2cc1OC1CCOC1 = 96.8

-- ask Given COC(=O)c1ccc2c(C(=Nc3ccc(N(C)C(=O)CN4CCN(C)CC4)cc3)c3ccccc3)c(O)[nH]c2c1 + COc1cc2nc(C)nc(NC(C)c3cc(N)cc(C(F)(F)F)c3)c2cc1OC1CCOC1 , state its recorded viability, T/C.
-- reply 73

---

Tested on: HUVEC/MSC spheroids viability
Experiment: Human HUVEC/MSC cell line growth inhibition [KRAS2]; active means viability on the fitted dose curve at most 10% of control; inactive means the rest;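 further: percent of DMSO vehicle control luminescence so 100% = untreated viability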
Settings: second compound 3 µM; first compound 10 µM
Select the matching outcome among yes (1) for active, no (0) for inactive

1. O=C(c1cc(Cc2n[nH]c(=O)c3ccccc23)ccc1F)N1CCN(C(=O)C2CC2)CC1 + C=CC(=O)N1CCN(c2nc(OCC3CCCN3C)nc3c2CCN(c2cccc4cccc(C)c24)C3)CC1CC#N = no (0)

-- ask I would be grateful if you could indicate the recorded call for COc1cc(Nc2ncc3c(n2)-c2ccc(Cl)cc2C(c2c(F)cccc2OC)=NC3)ccc1C(=O)O + C=CC(=O)N1CCN(c2nc(OCC3CCCN3C)nc3c2CCN(c2cccc4cccc(C)c24)C3)CC1CC#N .
-- reply no (0)

-- ask # outcome recorded in this test, key = CC1OCC2(CCN(c3cnc(Sc4ccnc(N)c4Cl)c(N)n3)CC2)C1N (centres undefined) + C=CC(=O)N1CCN(c2nc(OCC3CCCN3C)nc3c2CCN(c2cccc4cccc(C)c24)C3)CC1CC#N
-- reply yes (1)

-- ask Kindly provide the recorded test outcome for the following compound: Cn1nccc1Nc1nccc(-c2cc3c(s2)C(C)(C)N(CCN2CCOCC2)C3=O)n1 + C=CC(=O)N1CCN(c2nc(OCC3CCCN3C)nc3c2CCN(c2cccc4cccc(C)c24)C3)CC1CC#N
-- reply yes (1)

---

Test system: HUVEC/MSC spheroids viability
Assay: Human HUVEC/MSC cell line growth inhibition [KRAS2];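 further: percent of DMSO vehicle control luminescence so 100% = untreated viability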
Settings: second compound 0.1 µM; first compound 0.00949 µM; active compounds read low
observable: viability, T/C (%)
Response body: numeric value in %, unit text excluded.

1. CC(=O)Nc1cccc(-n2c(=O)n(C3CC3)c(=O)c3c(Nc4ccc(I)cc4F)n(C)c(=O)c(C)c32)c1 + CNCc1ccccc1-c1csc(C(C)Nc2nc(C)nc3cc(OC)c(OC)cc23)c1 = 67
2. CC(=O)OC12COC1CC(O)C1(C)C(=O)C(O)C3=C(C)C(OC(=O)C(O)C(NC(=O)OC(C)(C)C)c4ccccc4)CC(O)(C(OC(=O)c4ccccc4)C21)C3(C)C (stereo not given) + COc1cc2nc(C)nc(NC(C)c3cc(N)cc(C(F)(F)F)c3)c2cc1OC1CCOC1 = 50.7
3. CC(=O)OC12COC1CC(O)C1(C)C(=O)C(O)C3=C(C)C(OC(=O)C(O)C(NC(=O)OC(C)(C)C)c4ccccc4)CC(O)(C(OC(=O)c4ccccc4)C21)C3(C)C (stereo not given) + CC1OCC2(CCN(c3cnc(Sc4ccnc(N)c4Cl)c(N)n3)CC2)C1N = 67

-- ask Quick one: viability, T/C of CC(=O)Nc1cccc(-n2c(=O)n(C3CC3)c(=O)c3c(Nc4ccc(I)cc4F)n(C)c(=O)c(C)c32)c1 + COc1cc2nc(C)nc(NC(C)c3cc(N)cc(C(F)(F)F)c3)c2cc1OC1CCOC1 ?
-- reply 80.2

-- ask What viability, T/C value was documented for this compound, CC1COCCN1c1cc(-c2ccnn2C)c2ccnc(-c3ccn[nH]3)c2n1 (stereo not given) + CC1OCC2(CCN(c3cnc(Sc4ccnc(N)c4Cl)c(N)n3)CC2)C1N ?
-- reply 95.8

---

Test system: HUVEC/MSC spheroids viability
Test: Human HUVEC/MSC cell line growth inhibition [KRAS2];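 further: percent of DMSO vehicle control luminescence so 100% = untreated viability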
Settings: second compound 3.16 µM; first compound 0.0949 µM; active compounds read low
viability, T/C less than 70% is Fulfilled; viability, T/C greater than or equal to 70% is Not fulfilled.

Worked cases, answers included:
1. CC(=O)OC12COC1CC(O)C1(C)C(=O)C(O)C3=C(C)C(OC(=O)C(O)C(NC(=O)OC(C)(C)C)c4ccccc4)CC(O)(C(OC(=O)c4ccccc4)C21)C3(C)C (stereo not drawn) + CC1OCC2(CCN(c3cnc(Sc4ccnc(N)c4Cl)c(N)n3)CC2)C1N = Fulfilled
2. CC1COCCN1c1cc(-c2ccnn2C)c2ccnc(-c3ccn[nH]3)c2n1 (stereo not drawn) + C=CC(=O)N1CCN(c2nc(=O)n(-c3c(C)ccnc3C(C)C)c3nc(-c4c(O)cccc4F)c(F)cc23)C(C)C1 = Not fulfilled
3. CC1COCCN1c1cc(-c2ccnn2C)c2ccnc(-c3ccn[nH]3)c2n1 (stereo not drawn) + CNCc1ccccc1-c1csc(C(C)Nc2nc(C)nc3cc(OC)c(OC)cc23)c1 = Not fulfilled
4. CC(=O)OC12COC1CC(O)C1(C)C(=O)C(O)C3=C(C)C(OC(=O)C(O)C(NC(=O)OC(C)(C)C)c4ccccc4)CC(O)(C(OC(=O)c4ccccc4)C21)C3(C)C (stereo not drawn) + COc1cc2nc(C)nc(NC(C)c3cc(N)cc(C(F)(F)F)c3)c2cc1OC1CCOC1 = Fulfilled
5. CC(=O)OC12COC1CC(O)C1(C)C(=O)C(O)C3=C(C)C(OC(=O)C(O)C(NC(=O)OC(C)(C)C)c4ccccc4)CC(O)(C(OC(=O)c4ccccc4)C21)C3(C)C (stereo not drawn) + CNCc1ccccc1-c1csc(C(C)Nc2nc(C)nc3cc(OC)c(OC)cc23)c1 = Not fulfilled
6. CC1COCCN1c1cc(-c2ccnn2C)c2ccnc(-c3ccn[nH]3)c2n1 (stereo not drawn) + COc1cc2nc(C)nc(NC(C)c3cc(N)cc(C(F)(F)F)c3)c2cc1OC1CCOC1 = Not fulfilled

Moving on to the next compound.
-- ask Report whether reported viability, T/C is lower than 70% (strictly) for CC(=O)OC12COC1CC(O)C1(C)C(=O)C(O)C3=C(C)C(OC(=O)C(O)C(NC(=O)OC(C)(C)C)c4ccccc4)CC(O)(C(OC(=O)c4ccccc4)C21)C3(C)C (stereo not drawn) + C=CC(=O)N1CCN(c2nc(=O)n(-c3c(C)ccnc3C(C)C)c3nc(-c4c(O)cccc4F)c(F)cc23)C(C)C1
-- reply Fulfilled

---

System: HUVEC/MSC spheroids viability
Experiment: Human HUVEC/MSC cell line growth inhibition [KRAS2];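 further: percent of DMSO vehicle control luminescence so 100% = untreated viability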
Conditions: second compound 3.16 µM; first compound 1 µM; active compounds read low
// assign 1 if viability, T/C falls strictly below 90%, else -1 (ties count as -1)

1) COc1cc(Nc2ncc3c(n2)-c2ccc(Cl)cc2C(c2c(F)cccc2OC)=NC3)ccc1C(=O)O + C=CC(=O)N1CCN(c2nc(=O)n(-c3c(C)ccnc3C(C)C)c3nc(-c4c(O)cccc4F)c(F)cc23)C(C)C1 = -1

-- ask Determine if O=C(c1cc(Cc2n[nH]c(=O)c3ccccc23)ccc1F)N1CCN(C(=O)C2CC2)CC1 + COc1cc2nc(C)nc(NC(C)c3cc(N)cc(C(F)(F)F)c3)c2cc1OC1CCOC1 shows viability, T/C strictly lower than 90%.
-- reply 1

-- ask Quick check: viability, T/C of Cn1nccc1Nc1nccc(-c2cc3c(s2)C(C)(C)N(CCN2CCOCC2)C3=O)n1 + CC1OCC2(CCN(c3cnc(Sc4ccnc(N)c4Cl)c(N)n3)CC2)C1N under 90%?
-- reply 1

---

Below, each of the compounds is paired with its reported viability, T/C value.
System: HUVEC/MSC spheroids viability
Assay: Human HUVEC/MSC cell line growth inhibition [KRAS2];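 further: percent of DMSO vehicle control luminescence so 100% = untreated viability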
Details: second compound 0.00949 µM; first compound 0.1 µM; active compounds read low
Give a bare numeral; the unit % is implied.

-- ask Could you tell me which viability, T/C is on file for CC1OCC2(CCN(c3cnc(Sc4ccnc(N)c4Cl)c(N)n3)CC2)C1N (stereo not drawn) + C=CC(=O)N1CCN(c2nc(OCC3CCCN3C)nc3c2CCN(c2cccc4cccc(C)c24)C3)CC1CC#N ?
-- reply 102

-- ask // lookup viability, T/C for CN(C)C/C=C/C(=O)Nc1cc2c(Nc3ccc(F)c(Cl)c3)ncnc2cc1O[C@H]1CCOC1 + C=CC(=O)N1CCN(c2nc(OCC3CCCN3C)nc3c2CCN(c2cccc4cccc(C)c24)C3)CC1CC#N
-- reply 74.4

-- ask Reported viability, T/C for O=C(c1cc(Cc2n[nH]c(=O)c3ccccc23)ccc1F)N1CCN(C(=O)C2CC2)CC1 + C=CC(=O)N1CCN(c2nc(OCC3CCCN3C)nc3c2CCN(c2cccc4cccc(C)c24)C3)CC1CC#N : what is it?
-- reply 101

-- ask Please look up its viability, T/C: CC(C)n1nc(-c2ccc3oc(N)nc3c2)c2c(N)ncnc21 + C=CC(=O)N1CCN(c2nc(OCC3CCCN3C)nc3c2CCN(c2cccc4cccc(C)c24)C3)CC1CC#N
-- reply 39.8

-- ask Item Cn1nccc1Nc1nccc(-c2cc3c(s2)C(C)(C)N(CCN2CCOCC2)C3=O)n1 + C=CC(=O)N1CCN(c2nc(OCC3CCCN3C)nc3c2CCN(c2cccc4cccc(C)c24)C3)CC1CC#N has what recorded viability, T/C?
-- reply 103

-- ask // lookup viability, T/C for CC(C)NCC(C(=O)N1CCN(c2ncnc3c2C(C)CC3O)CC1)c1ccc(Cl)cc1 (stereo not drawn) + C=CC(=O)N1CCN(c2nc(OCC3CCCN3C)nc3c2CCN(c2cccc4cccc(C)c24)C3)CC1CC#N
-- reply 92.3

-- ask Please look up its viability, T/C: CC1(C)CCC(CN2CCN(c3ccc(C(=O)NS(=O)(=O)c4ccc(NCC5CCOCC5)c([N+](=O)[O-])c4)c(Oc4cnc5[nH]ccc5c4)c3)CC2)=C(c2ccc(Cl)cc2)C1 + C=CC(=O)N1CCN(c2nc(OCC3CCCN3C)nc3c2CCN(c2cccc4cccc(C)c24)C3)CC1CC#N
-- reply 86.2

-- ask Value lookup for viability, T/C; key = COc1cc(Nc2ncc3c(n2)-c2ccc(Cl)cc2C(c2c(F)cccc2OC)=NC3)ccc1C(=O)O + C=CC(=O)N1CCN(c2nc(OCC3CCCN3C)nc3c2CCN(c2cccc4cccc(C)c24)C3)CC1CC#N
-- reply 88

-- ask Would you mind telling me what viability, T/C value was observed for COc1cc2nccc(Oc3ccc(NC(=O)C4(C(=O)Nc5ccc(F)cc5)CC4)cc3)c2cc1OC + C=CC(=O)N1CCN(c2nc(OCC3CCCN3C)nc3c2CCN(c2cccc4cccc(C)c24)C3)CC1CC#N ?
-- reply 102

These measurements were taken from PubChem BioAssay AID2060912.
